Experiment: inhibitors of fungal efflux pumps CDR1, CDR2, MDR1, pilot screen, validation compound set, multiplex, phenotypic (AID 588506);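 further: Nile Red retained in cells so higher fluorescence means more efflux inhibition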
Settings: S. cerevisiae pump-expressing triplex, Nile Red efflux flow cytometry; at 10 µM
Calls of active or inactive are those of the source.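 How the source made its calls: active means efflux inhibition above 0.42, the validation set average plus 4 SD; inconclusive means no clear call, values can overlap the other calls; inactive means the rest.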
Form entry, call: pick from active, inactive

Prompt: Field: outcome | Entry: "C[C@]12CCC(=O)C(O)=C1CC[C@@H]1[C@@H]2CC[C@]2(C)C(=O)CC[C@@H]12"
Response: inactive

Prompt: What outcome does the record of this test show for "Cc1ccc(-n2c(C)cc(/C=C3/C(=O)NC(=O)N(C)C3=O)c2C)cc1" ?
Response: inactive

Prompt: Tell me the recorded outcome of this test for CCOC(=O)c1cncn1C(C)c1ccccc1 (configuration not stated) .
Response: inactive

Prompt: Dear all, I need the recorded test outcome for "C[C@]12CC[C@@H](O)C[C@@H]1CC[C@@H]1[C@@H]2CC[C@]2(C)[C@@H](O)CC[C@@H]12" , thank you.
Response: inactive

Prompt: Check the results log: what was the call for "O=c1cccc2n1C[C@H]1C[C@@H]2CN2CCCC[C@@H]12" ?
Response: inactive

Prompt: Just curious, what result did "Cn1c(O)c(C=NCCc2c[nH]c3ccccc23)c(=O)n(C)c1=O" get here?
Response: inactive

Prompt: Called result for C#CCN(C)C(C)Cc1ccccc1 (configuration not stated)
Response: inactive

Prompt: Call for entry "O=c1c2ccccc2[se]n1-c1ccccc1" :
Response: active

Prompt: Given OC1CCCCC1N1CCC(c2ccccc2)CC1 (configuration not stated) , state the outcome it received in this test.
Response: active

Prompt: Short answer needed: outcome of this test for "Cc1c2ccncc2c(C)c2c1[nH]c1ccccc12" ?
Response: inactive

Prompt: Please indicate how the test categorized "NCCc1c[nH]c2ccc(F)cc12" .
Response: inactive

Prompt: Hi, do you know how "COc1cc2c3cc1Oc1cc(ccc1O)C[C@@H]1c4c(cc(OC)c(O)c4Oc4ccc(cc4)C[C@H]3N(C)CC2)CCN1C" came out in this test?
Response: inactive

Prompt: Hey, what did the test say about CC(CCc1ccccc1)NC(C)C(O)c1ccc(O)cc1 (configuration not stated) ?
Response: inactive

Prompt: Entry CC(C)NC(C)C(=O)c1ccc2ccccc2c1 (configuration not stated) : call = ?
Response: inactive

Prompt: Which outcome did this test record for the molecule O=C1CSC2N1CCNC21CCCCC1 (configuration not stated) ?
Response: active

Prompt: Kindly provide the recorded test outcome for the following molecule: C[C@]12CCC(=O)C=C1CCC1C2CC[C@@]2(C)C1CC[C@@]2(O)CC#N (some centres not stated)
Response: inactive

Prompt: Write down the call the test reported for this molecule. Item: C[N+]1(C)[C@@H]2CC[C@H]1CC(OC(=O)C(CO)c1ccccc1)C2 (some centres not stated)
Response: inactive

Prompt: For this molecule, state the assay outcome: "CCNC(=S)N(C)CCc1cc2c(c(OC)c1C=C1C(=O)N(C)C(=O)N(C)C1=O)OCO2"
Response: inactive

Prompt: Dear all, I need the recorded test outcome for "CN1C[C@H](CNC(=O)OCc2ccccc2)C[C@@H]2c3cccc4c3c(cn4C)C[C@H]21" , thank you.
Response: inactive

Prompt: Answer briefly: the call reported for "CC(C)[N+](C)(CCC(C(N)=O)(c1ccccc1)c1ccccc1)C(C)C" in this assay.
Response: inactive

Prompt: Tell me the recorded outcome of this test for CC(C)C[C@H]1C(=O)N2CCCC2[C@]2(O)O[C@](NC(=O)[C@@H]3C=C4c5cccc6[nH]cc(c56)CC4N(C)C3)(C(C)C)C(=O)N12 (some centres not stated) .
Response: inactive

Prompt: For CC12CCC3C(CC=C4CC(O)CCC43C)C1C/C(=C\c1cccc(F)c1)C2=O (configuration not stated) , what call appears in the results of this test?
Response: inactive

The origin of these recorded values is PubChem BioAssay.
